Assignment: determine reported inhibition for the given compounds.
# experimentalSystem: Glucose transporter (Leishmania mexicana)
# testSummary: ST_JUDE_LEISH: Cytotoxicity at 2uM final concentration against transgenic Leishmania Mexicana promastigotes LmGT2 that are glucose transport deficient and complemented with the L. Mexicana glucose transporter 2. Activity is measured by DNA content using SYBR green in vitro
# Assay type: functional
Express the result in % but write the number alone.

**Query** # returns recorded inhibition (system: Glucose transporter (Leishmania mexicana)) for FC(F)(F)c1cc(Nc2ncnc3ccc(Br)cc23)ccc1OCc1ccccc1
**Result** 3.84

**Query** What do you have for O=C(NC1CCCCC1)N(Cc1ccc(-c2ccc(CNC3CCCC3)cc2)cc1)C1CCN(Cc2ccccc2)CC1 ?
**Result** 5.15

**Query** What do you have for O=S(=O)(c1ccc(OC(F)(F)F)cc1)C1CC2CCC(C1)N2S(=O)(=O)c1ccc(Cl)c(C(F)(F)F)c1 (stereo not given) ?
**Result** 10.4

**Query** What do you have for CCCC(C)NC(=O)[C@H]1CNCCN1C(=O)CCCc1ccccc1 (stereo not given in full) ?
**Result** 3.67

**Query** What do you have for CN(C)C(=S)N/N=C1/C(=O)Nc2ccc(OC(F)(F)F)cc21 ?
**Result** 0.75

**Query** What do you have for O=C(Nc1ccc(Cl)cc1)Nc1ccc(-c2cccc(-c3nc4cc(F)ccc4[nH]3)c2)cc1 ?
**Result** 3.09

**Query** What do you have for Cc1nc(C)c(-c2ccc(C(=O)c3ccc(Cl)cc3)cc2)c(O)c1Cl ?
**Result** 9.25

**Query** What do you have for Cc1ccccc1OCC(=O)Nc1ccc(-c2nc3cc4ccccc4cc3[nH]2)cc1 ?
**Result** 4.05

**Query** What do you have for Cc1cc(CNC(=O)[C@H](CC2CCCCC2)Nc2ccc(C#N)c3ccccc23)c(C(F)(F)F)o1 ?
**Result** -1.16

**Query** What do you have for O=S(=O)(Nc1ccc2nccc(N3CCNCC3)c2c1)c1ccc(-c2ccccc2)cc1 ?
**Result** 0.59
